- assay method text: Cytotoxicity assay
- condition label: human, PC3 cells

compound | IC50
CC(=O)Oc1cccc(C(=O)NCCCCN(CCCNC(=O)c2cccc(OC(C)=O)c2OC(C)=O)C(=O)CCC(=O)NCCCCCN(OC(C)=O)C(=O)CCC(=O)N[C@@H](C(=O)N[C@@H]2C(=O)N3C2SC(C)(C)[C@@H]3C(=O)O)c2ccccc2)c1OC(C)=O (stereo partly shown) | > 20 µM
